# MEASUREMENT NOTES: qHTS assay to identify small molecule agonists of H2AX - cell viability counter screen (AID 1224847); note: nearly all actives have a fitted effect of over 30% in size
# DETAILS: CHO-K1 viability, CellTiter-Glo luminescence, 3 h; series mostly up to 154 µM
Records with an inconclusive call do not appear. Active and inactive are the calls of the source. Calls come from the whole dose curve.
// allowed return values: 1 for active, -1 for inactive

Identify the outcome logged in this assay for the compound shown: CCCCCN=C(N)N/N=C/c1c[nH]c2ccc(OC)cc12
1

Identify the outcome logged in this assay for the compound shown: COc1c(Br)cc(Br)c(C)c1Br
-1

Identify the outcome logged in this assay for the compound shown: CN1CCN(C)CC1
-1

Identify the outcome logged in this assay for the compound shown: Cc1ccc(N=Nc2c(O)ccc3ccccc23)c(C)c1
-1

Identify the outcome logged in this assay for the compound shown: COc1cc(OC)nc(NC(=O)NS(=O)(=O)Nc2ccccc2C(=O)N(C)C)n1
-1

Identify the outcome logged in this assay for the compound shown: O=C1OC2(c3ccccc31)c1ccc(O)c(Br)c1Oc1c2ccc(O)c1Br
-1

Identify the outcome logged in this assay for the compound shown: Cc1cc(F)ccc1-c1cc(N2CC[C@@H](O)[C@H]2CO)ncc1N(C)C(=O)C(C)(C)c1cc(C(F)(F)F)cc(C(F)(F)F)c1
1

Identify the outcome logged in this assay for the compound shown: CCCCCCCCCCCC(=O)Cl
-1

Identify the outcome logged in this assay for the compound shown: CCC(=O)OC/C=C(\C)CCC=C(C)C
-1

Identify the outcome logged in this assay for the compound shown: Cc1c[nH]c(=O)[nH]c1=O
-1

Identify the outcome logged in this assay for the compound shown: CCSCC
-1

Identify the outcome logged in this assay for the compound shown: Cn1ccnc1
-1

Identify the outcome logged in this assay for the compound shown: Cc1cc(C)c(O)c(C(C)(C)C)c1
1

Identify the outcome logged in this assay for the compound shown: NC(=O)C1CO1 (centres undefined)
-1

Identify the outcome logged in this assay for the compound shown: COCCC(=O)OC
-1

Identify the outcome logged in this assay for the compound shown: O=C(CCCCCCCCc1cccnc1)N1CCC(C=C(c2ccccc2)c2ccccc2)CC1
1

Identify the outcome logged in this assay for the compound shown: NC(=O)c1ccccc1Cl
-1

Identify the outcome logged in this assay for the compound shown: C1=CCCC1
-1

Identify the outcome logged in this assay for the compound shown: CCOC=C(C(=O)OCC)C(=O)OCC
-1

Identify the outcome logged in this assay for the compound shown: O=C1OCc2ccccc21
-1

Identify the outcome logged in this assay for the compound shown: CC(=O)CC(N)=O
-1

Identify the outcome logged in this assay for the compound shown: O=C(Cl)c1ccc(Cl)cc1Cl
-1

Identify the outcome logged in this assay for the compound shown: CC1CCC(C(C)(C)O)CC1 (centres undefined)
-1

Identify the outcome logged in this assay for the compound shown: CCNc1nc(NC(C)(C)C)nc(OC)n1
-1

Identify the outcome logged in this assay for the compound shown: CC(=O)[C@]1(O)Cc2c(O)c3c(c(O)c2[C@@H](O[C@H]2C[C@H](N)[C@H](O)[C@H](C)O2)C1)C(=O)c1ccccc1C3=O
-1

Identify the outcome logged in this assay for the compound shown: S=C1NC=NC2N=CNC12 (centres undefined)
1

Identify the outcome logged in this assay for the compound shown: SC1CCCCC1
-1

Identify the outcome logged in this assay for the compound shown: Cc1ccc(C=O)cc1
-1

Identify the outcome logged in this assay for the compound shown: CC1=C(/C=C/C(C)=C/C=C/C(C)=C\C(=O)O)C(C)(C)CCC1
-1
